Experiment: 14-day oral gavage toxicokinetic study in rats
Format: in vivo
Conditions: male, rat, plasma, po, 30 mg/kg, Individual Compound 1 Plasma Concentration, rats, daily oral 30 mg/kg, Day 1, Male, 8 h

| Compound | Unit tag | concentration at 8 h |
| --- | --- | --- |
| CN1CCN(c2ccc(Nc3ncc4cc5n(c4n3)C3(CCCCC3)CNC5=O)nc2)CC1 [Compound 1] | ng/mL | 2000 |

---

Assay: Compound 1 PK dosed Days 1-5 with topotecan
Format: in vivo, human
Settings: human, plasma, intravenous, Cohort 1 (Topotecan […]^2); Compound 1 200 mg/m^2; Day 4; mean; read-out: Half-lives averaged (converted)

| Test smiles | half-life, h |
| --- | --- |
| CN1CCN(c2ccc(Nc3ncc4cc5n(c4n3)C3(CCCCC3)CNC5=O)nc2)CC1 | 8.06 |

---

Experiment: Compound 1 PK dosed Days 1-3 with etoposide and carboplatin
Assay type: in vivo, human
Settings: human, plasma, intravenous, 200 mg/m2, 200 mg/m^2 with Etoposide and Carboplatin, Day 3, Median; read-out: t½ (converted)
Measure name: half-life (h)

| Test smiles | Measure name | Unit tag | Endpoint result |
| --- | --- | --- | --- |
| CN1CCN(c2ccc(Nc3ncc4cc5n(c4n3)C3(CCCCC3)CNC5=O)nc2)CC1 | half-life | h | 9.15 |

---

Assay: 14-day oral gavage toxicokinetic study in rats
Format: in vivo
Conditions: both sexes, rat, plasma, po, 30 mg/kg, Mean Compound 1 Plasma Concentration, rats, oral 30 mg/kg, Day 1, 2 h, Overall

| Compound | concentration at 2 h [ng/mL] |
| --- | --- |
| CN1CCN(c2ccc(Nc3ncc4cc5n(c4n3)C3(CCCCC3)CNC5=O)nc2)CC1 [Compound 1] | 2360 |

---

Assay: 14-day oral gavage toxicokinetic study in rats
Assay type: in vivo
Details: female, rat, plasma, po, 15 mg/kg, oral 15 mg/kg, Study Day 14, Female; read-out: t½ (converted)
Measure name: half-life (h)

| Test smiles | Measure name | Endpoint result |
| --- | --- | --- |
| CN1CCN(c2ccc(Nc3ncc4cc5n(c4n3)C3(CCCCC3)CNC5=O)nc2)CC1 | half-life | 5.24 |

---

Assay: 14-day oral gavage toxicokinetic study in rats
Type: in vivo
Details: male, rat, plasma, po, 30 mg/kg, Individual Compound 1 Plasma Concentration, rats, daily oral 30 mg/kg, Day 14, Male, 24 h
Measure name: concentration at 24 h (ng/mL)

| Test smiles | Measure name | Unit tag | Endpoint result |
| --- | --- | --- | --- |
| CN1CCN(c2ccc(Nc3ncc4cc5n(c4n3)C3(CCCCC3)CNC5=O)nc2)CC1 | concentration at 24 h | ng/mL | 208 |

---

Assay: Compound 1 PK dosed Days 1-3 with etoposide and carboplatin
Assay type: in vivo, human
Settings: human, plasma, intravenous, 200 mg/m2, 200 mg/m^2 with Etoposide and Carboplatin, Day 1, Geo. Mean; read-out: Cmax

| Test smiles | Cmax |
| --- | --- |
| CN1CCN(c2ccc(Nc3ncc4cc5n(c4n3)C3(CCCCC3)CNC5=O)nc2)CC1 | 1070 ng/mL |

---

Test: 14-day oral gavage toxicokinetic study in rats
Type: in vivo
Settings: both sexes, rat, plasma, po, 30 mg/kg, Mean Compound 1 Plasma Concentration, rats, oral 30 mg/kg, Day 1, 4 h, Overall

| Test smiles | concentration at 4 h, ng/mL |
| --- | --- |
| CN1CCN(c2ccc(Nc3ncc4cc5n(c4n3)C3(CCCCC3)CNC5=O)nc2)CC1 | 2380 |
